Taken from patent EP0394553A2.

tested on: HIV (LAV 1); assay: microbe, parasite or virus in culture; details: 5 mcg/ml, 4-day addition, after 4 days
recorded_endpoint: Viral antigen-positive cell percentage (%)

1) Cl.O.O=C(O)c1cn(C2CC2)c2cc(N3CCNCC3)c(F)cc2c1=O ... 92
2) CC1COc2c(N3CCN(C)CC3)c(F)cc3c(=O)c(C(=O)O)cn1c23 (racemic) ... 82
3) C[C@H]1COc2c(N3CCN(C)CC3)c(F)cc3c(=O)c(C(=O)O)cn1c23 [DR-3355, hemihydrate] ... 90
4) CCn1cc(C(=O)O)c(=O)c2cc(F)c(N3CCNCC3)nc21 ... 93
5) CCn1cc(C(=O)O)c(=O)c2cc(F)c(N3CCNCC3)cc21 ... 83
